# target-of-assay: T1, His-GRIP(PDZ4-6) (rat, UniProt P97879 448-792)
# T1 construct: range 448-792; not shown: His tag and vector residues from pRSET
# T1 sequence (looked up): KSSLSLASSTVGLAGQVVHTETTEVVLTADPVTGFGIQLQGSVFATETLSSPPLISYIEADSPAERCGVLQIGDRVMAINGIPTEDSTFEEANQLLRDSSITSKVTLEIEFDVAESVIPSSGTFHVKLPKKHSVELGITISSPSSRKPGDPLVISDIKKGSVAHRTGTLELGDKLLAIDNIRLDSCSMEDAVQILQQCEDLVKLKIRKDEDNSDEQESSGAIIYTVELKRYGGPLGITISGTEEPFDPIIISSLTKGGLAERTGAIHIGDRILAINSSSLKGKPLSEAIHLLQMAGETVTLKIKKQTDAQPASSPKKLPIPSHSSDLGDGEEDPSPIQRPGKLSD
# measurement-protocol: displacement of ^35S-EphB2 (50 nM) from His-GRIP-PDZ4-6, Hill fit
experimental-readout: pKi
Give bare numbers, as −log10 of the molar value.

> print(dat)
                                     binder  experimental.readout  observed.measurement
1  QMNQIQSVEV (also called EphB2 peptide) [EphB2 carboxy terminal peptide]                   pKi                  7.37

With those in mind, consider the next binder.
Q: Look up pKi: NVYGIESVKI (also called GluR2ct; R2ct) [GluR2 carboxy terminal peptide]
Result: 6.97
